# PROCEDURE DETAILS: Cytotoxicity against human TZM-bl cells after 48 hrs by MTT assay
# Type: cell-based
QUANTITY: CC50 at 48 h (µM)
// note: answer is a bare numeric in µM

A selection of reference data follows.
* C=C1CC[C@@H]2[C@](C)(COC(=O)NS(=O)(=O)c3ccc(C)cc3)[C@H](O)CC[C@@]2(C)[C@@H]1C/C=C1/C(=O)OC[C@H]1O | 2040
* C=C1CC[C@@H]2[C@]3(C)COC(c4ccc(O)c(OC)c4)O[C@@H]3CC[C@@]2(C)[C@@H]1C/C=C1/C(=O)OC[C@H]1O (stereo not given in full) | 59
* C=C1CC[C@@H]2[C@]3(C)COC(c4ccc(O)cc4)O[C@@H]3CC[C@@]2(C)[C@@H]1C/C=C1/C(=O)OC[C@H]1O (stereo not given in full) | 50

Exercise: Given "C=C1CC[C@@H]2[C@](C)(CO)[C@H](O)CC[C@@]2(C)[C@@H]1C/C=C1/C(=O)OC[C@H]1OC(=O)c1ccccc1O" , state its recorded CC50 at 48 h.
Key: 1080

Exercise: Moving on to C=C1CC[C@@H]2[C@]3(C)COC(c4cccc([N+](=O)[O-])c4)O[C@@H]3CC[C@@]2(C)[C@@H]1C/C=C1/C(=O)OC[C@H]1O (stereo not given in full)
Key: 745

Exercise: Then C=C1CC[C@@H]2[C@](C)(CO)[C@H](O)CC[C@@]2(C)[C@@H]1C/C=C1/C(=O)OC[C@H]1O [ANDROGRAPHOLIDE] ?
Key: 1700

Exercise: // query: C=C1CC[C@@H]2[C@]3(C)COC(c4ccc(O)cc4O)O[C@@H]3CC[C@@]2(C)[C@@H]1C/C=C1/C(=O)OC[C@H]1O (stereo not given in full)
Key: 179

Exercise: C=C1CC[C@@H]2[C@]3(C)COC(c4ccc5c(c4)OCO5)O[C@@H]3CC[C@@]2(C)[C@@H]1C/C=C1/C(=O)OC[C@H]1O (stereo not given in full) ?
Key: 1650

Exercise: Moving on to the next molecule: "C=C1CC[C@@H]2[C@](C)(CO)[C@H](O)CC[C@@]2(C)[C@@H]1C/C=C1/C(=O)OC[C@H]1OC(=O)c1ccc(Cl)nc1Cl"
Key: 10400

Exercise: Same read-out for C=C1CC[C@@H]2[C@]3(C)COC(c4ccc(Cl)cc4)O[C@@H]3CC[C@@]2(C)[C@@H]1C/C=C1/C(=O)OC[C@H]1O (stereo not given in full) ?
Key: 440
